- System: test animal (left carotid and femoral artery flow, ventricular and aortic pressure)
- experiment-notes: Cardiovascular properties (flow rates of carotid and femoral artery, ventricular and aortic pressures) in the test animal
- Format: in vivo
- condition-info: 2 mg/kg; maximum where stated

- compound: "CCN(CC)S(=O)(=O)c1cnccc1N1CCN(C)CC1 [Example 32]"
  experimental-system: "test animal (left carotid and femoral artery flow, ventricular and aortic pressure)"
  units-text: "%"
  increase of the carotid flow rate: 60
- compound: "COCCNS(=O)(=O)c1cnccc1N1CCN(C)CC1 [Example 39]"
  experimental-system: "test animal (left carotid and femoral artery flow, ventricular and aortic pressure)"
  units-text: "%"
  increase of the carotid flow rate: 75
- compound: "CCOCCNS(=O)(=O)c1cnccc1N1CCN(C)CC1 [Example 40]"
  experimental-system: "test animal (left carotid and femoral artery flow, ventricular and aortic pressure)"
  units-text: "%"
  increase of the carotid flow rate: 300
- compound: "CN1CCN(c2ccncc2S(N)(=O)=O)CC1 [Example 28]"
  experimental-system: "test animal (left carotid and femoral artery flow, ventricular and aortic pressure)"
  units-text: "%"
  increase of the carotid flow rate: 150
